- Test system: K4 kissing-loop RNA reporter
- Test Summary: apparent KD of K4 kissing-loop reporter; higher = weaker reporter binding
- Run Conditions: Eterna round: R107; input ligand: theophylline 20 uM
apparent KD of K4 kissing-loop reporter values for the sequences below.
Parameter Measured: apparent KD of K4 kissing-loop reporter (µM)

INSERT INTO measurements (sequence, parameter_measured, experimental_result) VALUES
  ('GGUGUUGUUUGUGCUGUUUUCCUCGUUCCUCGAGGACCGGUACGGCCGCCACUCGAGUGAUGUUUGGGUAGCGAUCCUUGUUAGU [Bdazzled - #7 Exc. Tryptophan A]', 'apparent KD of K4 kissing-loop reporter', 0.264),
  ('UGCGCUGUGUACUGUAAUGUUAUGCGGGAUACCAGAGUCUUUUUAUUCCCUUGGCAGCUUGAGUGAUGUUUGAUGCCGUUCUUGU [plpkmullin]', 'apparent KD of K4 kissing-loop reporter', 0.452),
  ('GCGCGGCUCAGUGAUGUUGAGCCUCGGAAACGAGGACCGGUACGGCCGCCACUCGUCCGCGCAGCUGAGGCAAAAGCCUCGGCUA [Omei KL Tryp A SS B v2]', 'apparent KD of K4 kissing-loop reporter', 0.48);

* * *

- Tested on: K4 kissing-loop RNA reporter;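 also: bound reporter read as fluorescence of individual clusters on recovered sequencing chips by microscopy, with normalized cluster intensities fitted with a binding model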
- Test Summary: apparent KD of K4 kissing-loop reporter; higher = weaker reporter binding
- Run Conditions: Eterna round: R107; input ligand: FMN 200 uM
Parameter Measured: apparent KD of K4 kissing-loop reporter (nM)

INSERT INTO measurements (sequence, parameter_measured, measure_unit, experimental_result) VALUES
  ('GGUAGCAUGGCGGCCGCCACUCUUCAUUAGUGAUGUUAAUGCCGAGUGCGCUAACUCCAACUGGAGAGGACCGGGCCAUGCUACC', 'apparent KD of K4 kissing-loop reporter', 'nM', 182),
  ('AGGUCACUACUACAGUGAUGUUGUGGAGAGCAGGAUAUGCAGAAAUGCAGAAGGGCUCGCUCUCAGUGACCGAAUGAAACAUUCA [Omei KL FMN A SS A v8]', 'apparent KD of K4 kissing-loop reporter', 'nM', 663),
  ('CUUAAGACAUGAGUGAUGUUCAUGUCCGAAGGAGCGUGCGAAAGCACAGGUAGGUCGCGGACGUGAGUGAUGUUCAUGUAAGCGA [KL-XArg-A11 #analogue]', 'apparent KD of K4 kissing-loop reporter', 'nM', 159),
  ('GCCGUAGAUUGAAGGAGCGCUAGUAGUGAUGUUGCUUGCACUUCUUGUGUAAGAAGAACCUAGCAGGUAGGUCGCAAUCUACGGC', 'apparent KD of K4 kissing-loop reporter', 'nM', 700),
  ('AGAGUUAUAUGAGGAUAUGGGAUAGUAACUGAGUGAGUUAUAGUGUAGUUUGUUUAGUGAUGUUAUUUAGAAGGCGUGAGUGAUG [wwwsemullin]', 'apparent KD of K4 kissing-loop reporter', 'nM', 162),
  ('AAAUUUAAUAUAUUUAAUUAAUUAUGUGAUACCAGACAUUAAUAAGUCCCUUGGCAGCACAAUGCAGUGAUGUUGCUUAUAAUAA [JR_SSTheophyA_Sub010]', 'apparent KD of K4 kissing-loop reporter', 'nM', 85.7),
  ('UUCAUCGUGGUUCACGGGUGGUAUGAAACGCGAGGACCGGUACGGCCGCCACUCGGUUCCGCUUGUUGAGUGAUGUUCAAUAUUU', 'apparent KD of K4 kissing-loop reporter', 'nM', 239),
  ('UCUUGCGGCGCAGGAUAUCCGUCUGUCUCCUGCGUCAUUCUGCAGUGAUGUUGCAGGUGACGGAUAGGAGAAGGGCGAACGUACA [Diinonorce]', 'apparent KD of K4 kissing-loop reporter', 'nM', 133),
  ('AUUAAUUUCAGAGGAUAUCGUAAUUUUAUUUAAUUUAUUCAUUUGUGCAGUGAUGUUGCUAAUAUUCGAGAAGGCUGAUUUAUAA [whbob_Ex_FMNB__2th223]', 'apparent KD of K4 kissing-loop reporter', 'nM', 142),
  ('CGAGUCCUGAGGAGUGAUGUUCCUCGGCCACGAGGACCGGUACGGCCGCCACUCGUUACUCGGGCUUAGCAGCAAGCACUAAGCU [Acesote]', 'apparent KD of K4 kissing-loop reporter', 'nM', 348),
  ('CUUUUACAGUCGGCCGCCACUGACAGCACUUCAAAGACAGUAUAAGGGUAGUGAUGUUACUUUAUCAGGACCGGGACUACCUAAC [theeternabot_sameState_KL_Trp_B_3]', 'apparent KD of K4 kissing-loop reporter', 'nM', 215),
  ('UUGUUUAACUGAAGGAGCGGCAAUUGAUACGUAGAUAUAGUGAUGUUAUAUAAGAUAGAGAGCCAGGUAGGUCGCAGAGGUGUUU [ExArgB.R]', 'apparent KD of K4 kissing-loop reporter', 'nM', 231),
  ('AUUUUUUUAUCAGGAUAUUAGUGAUGUUUGUUUUUGUUAGUGAUGUUGAUAUUUGUUUUAUGUAUUUAAGAAGGGAUUGAGAUGU [sfsmullin]', 'apparent KD of K4 kissing-loop reporter', 'nM', 46.4),
  ('UGAUAAAGCAGUGAUGUUGCAAGUAAUGAUACCAGUUAAGAAGAGAACCCUUGGCAGCAUAAAGUGCGCUCUAAUGAGUGUGCUU [whbob_SS_Theo_A_w51]', 'apparent KD of K4 kissing-loop reporter', 'nM', 82.9),
  ('GCCGUACGCAUGGAUACCAGUCUACAUCGCAGUGAUGUUGCGUAGUUCAGAUUAACUGCCGACCCUUGGCAGCCAUGCGUACGGC', 'apparent KD of K4 kissing-loop reporter', 'nM', 134),
  ('ACUAGAAAACCAGUGAUGUUGGCCUGGGAUACCAGCUUCUAUUAUAGCCCUUGGCAGCCCUUUAGUACAAGUGACCUUGCGACCG [theeternabot_sameState_KL_Theo_A_9]', 'apparent KD of K4 kissing-loop reporter', 'nM', 299),
  ('AAAAUAACCCAGUGAUGUUGGUAUGCAGAUACCAGCGACGAAAGUCGCCCUUGGCAGCUGUGGACGUACAAAAUAAGUACGUCCU', 'apparent KD of K4 kissing-loop reporter', 'nM', 1230),
  ('AGUGAAGUUAGUGAUGUGUGAGUUUGGGAAGGAGCGCCGAGGAAGGCAGGUAGGUCGCCCAGUGAUGUUGGUGUAAGGAUGAGAG [whbob_Ex_Arginine_A_2t123]', 'apparent KD of K4 kissing-loop reporter', 'nM', 451);
